test: Cytotoxicity in mammalian cells, MTT assay; assay type: cell-based; conditions: rhesus monkey, LLC-MK2 cells; 48 hours at 37°C; read-out: IC50 ± SD, LLC-MK2 cytotoxicity
I'd be grateful if you could share measured IC50 at 48 h for these entries.
One number for each entry, in µM.

Reference set (3 entries):
compound	IC50 at 48 h [µM]
N=C(N)c1ccc(OCCCCCOc2ccc(C(=N)N)cc2)cc1 [Pentamidine]	23.5
Cc1cccc(C)c1NC(=O)CN1CCN(CCCC(c2ccc(F)cc2)c2ccc(F)cc2)CC1 [Lidoflazine, lidoflazine]	107
CC(NCCC(c1ccccc1)c1ccccc1)c1ccccc1 (stereo not drawn) [Fendiline, fendiline]	49.9

Any idea what its IC50 at 48 h is? The compound is COCC(=O)O[C@]1(CCN(C)CCCc2nc3ccccc3[nH]2)CCc2cc(F)ccc2[C@@H]1C(C)C [Mibefradil, mibefradil]
12

====

test system: L. (L.) infantum intracellular amastigotes; assay: Activity against intracellular amastigotes in peritoneal macrophages, Giemsa staining and light microscopy; assay type: cell-based, Leishmania (L.) infantum; conditions: intracellular amastigotes in BALB/c peritoneal macrophages, 120 hours; read-out: IC50 ± SD, L. (L.) infantum amastigotes
value_type: pIC50
Numbers only, as −log10 of the molar value.

compound	pIC50
Cc1cccc(C)c1NC(=O)CN1CCN(CCCC(c2ccc(F)cc2)c2ccc(F)cc2)CC1 [Lidoflazine, lidoflazine]	4.79

Any idea what its pIC50 is? The compound is CC(NCCC(c1ccccc1)c1ccccc1)c1ccccc1 (centres unmarked) [Fendiline, fendiline]
4.91

====

I'd be grateful if you could share measured IC50 for these entries.
tested on: L. (L.) amazonensis promastigotes; assay: Antileishmanial activity against promastigotes, MTT assay; type: cell-based, Leishmania (L.) amazonensis; details: Leishmania amazonensis; 24 hours at 24°C, highest concentration 100 μM; read-out: IC50 ± SD, L. (L.) amazonensis promastigotes
Write your answer as a measured quantity: the number, then the unit.

compound	IC50
Cc1cccc(C)c1NC(=O)CN1CCN(CCCC(c2ccc(F)cc2)c2ccc(F)cc2)CC1 [Lidoflazine, lidoflazine]	11.5 µM
COCC(=O)O[C@]1(CCN(C)CCCc2nc3ccccc3[nH]2)CCc2cc(F)ccc2[C@@H]1C(C)C [Mibefradil, mibefradil]	2.23 µM
CC(NCCC(c1ccccc1)c1ccccc1)c1ccccc1 (stereo not shown) [Fendiline, fendiline]	8.66 µM

Consider the additional compound presented here.
Any idea what its IC50 is? The compound is N=C(N)c1ccc(OCCCCCOc2ccc(C(=N)N)cc2)cc1 [Pentamidine]
1.14 µM
